System: Malme-3M
Protocol Summary: NCI tumour cell line growth inhibition, 48 h
Activity calls are given as the source filed them. Rule as the data show it: active = GI50 up to about 1.1 µM and inactive = higher.
The entries below come with measured GI50 values attached.

Molecule	GI50
COc1ccccc1C[C@@H]1OC2(C=CC(=O)CC2SC(=O)c2ccccc2)O[C@H]1Cc1ccccc1OC (some centres undefined)	1.77 µM (inactive)
C[C@]12CC[C@H]3[C@@H](CCC4=CC(=O)CC[C@@H]43)[C@@H]1CC[C@@H]2OC1(O)C(=O)c2ccccc2C1=O	34 µM (inactive)
COc1ccc2c(-c3csc(-c4c[nH]c5ccccc45)n3)c[nH]c2c1	4.95 µM (inactive)
N#CC(NNC(=O)c1c(Cl)c(Cl)c(Cl)c(Cl)c1-c1nc2cc(C(=O)c3ccccc3)ccc2[nH]1)c1ccccc1 (centres undefined)	8.57 µM (inactive)
